Assay: Fluorescence emission of receptor compounds with increasing lactulose
Conditions: receptor 500 μM, phosphate buffer pH 7.4
Experimental: Fluorescence Measurements of exemplary boronic acid receptor compounds: Stock solutions of each boronic acid receptor compound (1-4) were initially prepared in DMS (1 mg/mL) and then diluted to desired initial 1 mM concentration before adding to the wells. Each lactulose concentration points were prepared in 0.1 M sodium phosphate buffer as 2-fold of the desired final concentration in each well. […]
recordedEndpoint: emission maxima (nm)

OB(O)c1cc(C[n+]2ccc(-c3ccc4ccccc4c3)cc2)cc(C[n+]2ccc(-c3ccc4ccccc4c3)cc2)c1 :: 504
OB(O)c1ccccc1C[n+]1ccc(-c2ccc3cc(-c4cc[n+](Cc5ccccc5B(O)O)cc4)ccc3c2)cc1 :: 440
OB(O)c1ccccc1C[n+]1ccc(-c2ccc3ccc(-c4cc[n+](Cc5ccccc5B(O)O)cc4)cc3c2)cc1 :: 440
OB(O)c1ccccc1C[n+]1ccc(-c2ccc3ccccc3c2)cc1.[Br-] :: 490

###

Assay: pH profile / pKa by fluorescence spectroscopy
Type: physicochemical
Details: 30 mM lactulose; receptor 500 μM (2) or 250 μM (3, 4); fluorescence titration pH 3-10; read-out: pka-with 30 mM lactulose
recordedEndpoint: pKa

OB(O)c1ccccc1C[n+]1ccc(-c2ccc3ccc(-c4cc[n+](Cc5ccccc5B(O)O)cc4)cc3c2)cc1 :: 5.7
OB(O)c1ccccc1C[n+]1ccc(-c2ccc3ccccc3c2)cc1.[Br-] :: 5.5
OB(O)c1ccccc1C[n+]1ccc(-c2ccc3cc(-c4cc[n+](Cc5ccccc5B(O)O)cc4)ccc3c2)cc1 :: 5.8

###

Assay: pH profile / pKa by fluorescence spectroscopy
Format: physicochemical
Conditions: aqueous buffer solutions in a 96-well plate; no lactulose; receptor 500 μM (2) or 250 μM (3, 4); fluorescence titration pH 3-10; read-out: pKa-absence of lactulose
recordedEndpoint: pKa

OB(O)c1ccccc1C[n+]1ccc(-c2ccc3ccccc3c2)cc1.[Br-] :: 7.7
OB(O)c1ccccc1C[n+]1ccc(-c2ccc3ccc(-c4cc[n+](Cc5ccccc5B(O)O)cc4)cc3c2)cc1 :: 8.2
OB(O)c1ccccc1C[n+]1ccc(-c2ccc3cc(-c4cc[n+](Cc5ccccc5B(O)O)cc4)ccc3c2)cc1 :: 7.8

###

Experiment: Absorption measurements with increasing lactulose
Assay type: physicochemical
Details: 0.1 M sodium phosphate buffer pH 7.4; 100 μM (1, 2), 50 μM (3, 4)
recordedEndpoint: molar extinction coefficient (M⁻¹ cm⁻¹)

OB(O)c1cc(C[n+]2ccc(-c3ccc4ccccc4c3)cc2)cc(C[n+]2ccc(-c3ccc4ccccc4c3)cc2)c1 :: 11700

(a) OB(O)c1ccccc1C[n+]1ccc(-c2ccc3ccccc3c2)cc1.[Br-]
(b) OB(O)c1ccccc1C[n+]1ccc(-c2ccc3cc(-c4cc[n+](Cc5ccccc5B(O)O)cc4)ccc3c2)cc1
(c) OB(O)c1ccccc1C[n+]1ccc(-c2ccc3ccc(-c4cc[n+](Cc5ccccc5B(O)O)cc4)cc3c2)cc1
Query: Parameters: sort_field (molar extinction coefficient), sort_dir (desc). Could you list the labels in the order requested?
Reply: c, b, a
(c: 50100 M⁻¹ cm⁻¹, b: 27700 M⁻¹ cm⁻¹, a: 11000 M⁻¹ cm⁻¹)
